RUN DESCRIPTION: soluble on expression in E. coli; label from the status in PepcDB or PDB records
ENDPOINT NAME: soluble on expression in E. coli

MONOMER SEQUENCE: SPSKVQELSVYEINELDRHSPKILKNAFSLMFGLGDLVPFTNKLYTGDLKKRVGITAGLCVVIEHVPEKKGERFEATYSFYFGDYGHLSVQGPYLTYEDSFLAITGGAGIFEGAYGQVKLQQLVYPTKLFYTFYLKGLANDLPLELTGTPVPPSKDIEPAPEAKALEPSGVISNYTN
ENDPOINT NAME: soluble on expression in E. coli
RECORDED VALUE: not soluble
--
MONOMER SEQUENCE: MGSDKIHHHHHHVRVPLLDRDHPRYGNDRFWPGMRAELAKLWRERGHAPILNPPRPRARTHKIQESRSMHLEVLRVPPTTADPEMADRPPLVFVHGAFAGAWCWRETFMPWFAARGWDTHALSLRGHGASDGAERLDSTRLADYADDLRRVIDELDRPPVLIGHSMGGMVVQKVLEDTQAAAAVLLASVPPTGLFSGSVLMALRHPLLCMALWRIQTFGPEEASLRMVEAGLFSTPLDAREAERYTALLQNESSRVVLDMTWFDVPRRRCPQELPLLVLGAEDDAFVPPIEVLATAAFHGTTAQLLPDIGHAMMLDRGWEKTASVMEEWLRCSAF
ENDPOINT NAME: soluble on expression in E. coli
RECORDED VALUE: not soluble
--
MONOMER SEQUENCE: MSKPSTPAPASADQNGDSATRQTAQTTETPASLLSAVGNGAPNMAGFTLNRDMVPFFPYQLQNPMLQPPQNSLENAIVHSLGTLAAQSSMFGQLCEKMLKAQEEARADQRSIREEHRAEREKADERSQQNMDKMMALVHSLVERVDRSHASSYDVVGQKNPSSSSLKPAKRVKSAVVRQSNLAKRTGAPVDAAKELKKIRDEENRNHGRSAERDNVFIGAVLVGKGSQYDKDLEKFKSFRCRTCNEVSQTKEQLVDHFSNNHAGELGARRSLRIKQTSC
ENDPOINT NAME: soluble on expression in E. coli
RECORDED VALUE: not soluble
